Listing of entries alongside the reported IC50.
System: GP2D
Assay: Inhibition of proliferation of KRAS G12D mutant tumor cell line GP2D (CellTiter-Glo)
Conditions: Homo sapiens, GP2d, 72 h, read-out: GP2D IC50

| molecule | IC50 |
| --- | --- |
| C#Cc1c(F)ccc2cc(O)cc(-c3nc4c5c(nc(OCC6(CN7CCC(=CF)C7)CC6)nc5c3F)N3CC5CCC(N5)C3CO4)c12 (stereo not drawn) | 0.76 nM |
| [2H]C([2H])([2H])[C@@H]1Oc2nc(-c3cc(O)cc4ccc(F)c(C#C)c34)c(F)c3nc(OCC4(CN5CCC(=CF)CC5)CC4)nc(c23)N2C[C@H]3CC[C@H](N3)[C@@H]12 | 0.32 nM |
| C#Cc1c(F)ccc2cc(O)cc(-c3nc4c5c(nc(OCC6(CN7CCC(=CF)CC7)CC6)nc5c3F)N3C[C@H]5CC[C@H](N5)[C@H]3[C@H](CC)O4)c12 | 0.41 nM |

----------
Assay: Pharmacokinetic determination in rats (IV and PO, plasma, LCMS/MS)
Assay type: in vivo, SD rats
Conditions: rat, in vivo, iv, 1 mg/kg
Protocol: SD rats were used as test animals to study the pharmacokinetic behavior of the example compounds in rats (plasma) after oral administration. The example compounds of the present invention, made in house. 3 SD rats per group, male. Shanghai Jiesijie Experimental Animal Co., Ltd., animal production license number (SCXK (Shanghai) 2013-0006 N0.311620400001794). Formulation of a drug for oral administration: 10% Captisol in 50 mM citrate buffer pH 5.0. […]

| query.smiles | half-life / h |
| --- | --- |
| [2H]C([2H])([2H])[C@@H]1Oc2nc(-c3cc(O)cc4ccc(F)c(C#C)c34)c(F)c3nc(OCC4(CN5CCC(=C(F)F)CC5)CC4)nc(c23)N2C[C@H]3CC[C@H](N3)[C@@H]12 | 8.4 |

----------
Assay: Plasma stability test, rat plasma
Conditions: Rat plasma, 37°C, 0 min
Catalogue of Remaining rate (%) 0 min readings, one per entry.

| query.smiles | unit.of.measurement | Remaining rate (%) 0 min |
| --- | --- | --- |
| C#Cc1c(F)ccc2cc(O)cc(-c3nc4c5c(nc(OCC6(CN7CCC(=CF)CC7)CC6)nc5c3F)N3C[C@H]5CC[C@H](N5)[C@H]3[C@H](C)O4)c12 | % | 100.00 |
| C#Cc1c(F)ccc2cc(O)cc(-c3nc4c5c(nc(OCC6(CN7CCC(=C(F)F)CC7)CC6)nc5c3F)N3C[C@H]5CC[C@H](N5)[C@H]3CO4)c12 | % | 100.00 |
| [2H]C([2H])([2H])[C@@H]1Oc2nc(-c3cc(O)cc4ccc(F)c(C#C)c34)c(F)c3nc(OCC4(CN5CCC(=CF)CC5)CC4)nc(c23)N2C[C@H]3CC[C@H](N3)[C@@H]12 | % | 100.00 |

----------
Assay: Pharmacokinetic determination in rats (IV and PO, plasma, LCMS/MS)
Assay type: in vivo, SD rats
Details: rat, in vivo; PO, 30 mg/kg, male SD rats, overnight fasting, plasma; read-out: Cmax

| compound | Cmax (ng/mL) |
| --- | --- |
| [2H]C([2H])([2H])[C@@H]1Oc2nc(-c3cc(O)cc4ccc(F)c(C#C)c34)c(F)c3nc(OCC4(CN5CCC(=CF)CC5)CC4)nc(c23)N2C[C@H]3CC[C@H](N3)[C@@H]12 [Example 164] | 135 |
| C#Cc1c(F)ccc2cc(O)cc(-c3nc4c5c(nc(OCC6(CN7CCC(=C(F)F)CC7)CC6)nc5c3F)N3C[C@H]5CC[C@H](N5)[C@H]3[C@H](C)O4)c12 [Example 19-1] | 329 |
| [2H]C([2H])([2H])[C@@H]1Oc2nc(-c3cc(N)cc(Cl)c3C(F)(F)F)c(F)c3nc(OCC4(CN5CCC(=NOC)CC5)CC4)nc(c23)N2C[C@H]3CC[C@H](N3)[C@@H]12 [Example 339] | 43 |
| [2H]C([2H])([2H])C1Oc2nc(-c3cc(O)cc4ccc(F)c(C#C)c34)c(F)c3nc(OCC4(CN5CCC(=CF)CC5C)CC4)nc(c23)N2CC3CCC(N3)C12 (centres unmarked) [Example 286] | 50 |
| C#Cc1c(F)ccc2cc(O)cc(-c3nc4c5c(nc(OCC6(CN7CCCC(=C(F)F)CC7)CC6)nc5c3F)N3C[C@H]5CC[C@H](N5)[C@H]3[C@H](CC)O4)c12 [Example 140] | 118 |
| C#Cc1c(F)ccc2cc(O)cc(-c3nc4c5c(nc(OCC6(CN7CCC(=C(F)F)CC7)CC6)nc5c3F)N3C[C@H]5CC[C@H](N5)[C@H]3CO4)c12 [Example 1-1] | 254 |
| C#Cc1c(F)ccc2cc(O)cc(-c3nc4c5c(nc(OCC6(CN7CCCC(=C(F)F)CC7)CC6)nc5c3F)N3C[C@H]5CC[C@H](N5)[C@H]3[C@H](C)O4)c12 [Example 132] | 246 |
| CON=C1CCN(CC2(COc3nc4c5c(nc(-c6cc(N)cc(Cl)c6C(F)(F)F)c(F)c5n3)O[C@@H](C)[C@@H]3[C@@H]5CC[C@H](CN43)N5)CC2)CC1 [Example 337] | 41 |

----------
Assay: Pharmacokinetic determination in rats (IV and PO, plasma, LCMS/MS)
Assay type: in vivo, SD rats
Conditions: male, SD, rat, in vivo, iv, 1 mg/kg

| compound | unit.of.measurement | clearance |
| --- | --- | --- |
| C#Cc1c(F)ccc2cc(O)cc(-c3ncc4c(N5CC6CCC(C5)N6)nc(OC[C@@]56CCCN5C[C@H](F)C6)nc4c3F)c12 [MRTX-1133, reference compound] | mL/min/kg | 45 |

----------
Experiment: Plasma stability test, rat plasma
Conditions: rat, plasma

| query.smiles | half-life [h] |
| --- | --- |
| [2H]C([2H])([2H])[C@@H]1Oc2nc(-c3cc(O)cc4ccc(F)c(C#C)c34)c(F)c3nc(OCC4(CN5CCC(=C(F)F)CC5)CC4)nc(c23)N2C[C@H]3CC[C@H](N3)[C@@H]12 | 29.4 |
| C#Cc1c(F)ccc2cc(O)cc(-c3nc4c5c(nc(OCC6(CN7CCC(=CF)CC7)CC6)nc5c3F)N3C[C@H]5CC[C@H](N5)[C@H]3[C@H](C)O4)c12 | 41.2 |
| [2H]C([2H])([2H])[C@@H]1Oc2nc(-c3cc(O)cc4ccc(F)c(C#C)c34)c(F)c3nc(OCC4(CN5CCC(=CF)CC5)CC4)nc(c23)N2C[C@H]3CC[C@H](N3)[C@@H]12 | 91.6 |
| C#Cc1c(F)ccc2cc(O)cc(-c3nc4c5c(nc(OCC6(CN7CCC(=C(F)F)CC7)CC6)nc5c3F)N3C[C@H]5CC[C@H](N5)[C@H]3[C@H](C)O4)c12 | 86.3 |
| C#Cc1c(F)ccc2cc(O)cc(-c3nc4c5c(nc(OCC6(CN7CCC(=C(F)F)CC7)CC6)nc5c3F)N3C[C@H]5CC[C@H](N5)[C@H]3CO4)c12 | 13.5 |
| [2H]C([2H])(Oc1nc2c3c(nc(-c4cc(O)cc5ccc(F)c(C#C)c45)c(F)c3n1)O[C@@H](C)[C@@H]1[C@@H]3CC[C@H](CN21)N3)C1(C([2H])([2H])N2CCC(=CF)CC2)CC1 | 38.3 |

----------
Test: Plasma stability test, mouse plasma;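 note: test compound quantified by LC-MS using positive-mode electrospray ionization and MRM scanning, with an internal standard added in acetonitrile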
Type: in vitro ADME
Settings: Mouse plasma, 37°C, 120 min
Remaining rate (%) 120 min strictly under 90% means Met; at 90% or over means Not met.

| molecule | class.label |
| --- | --- |
| [2H]C([2H])([2H])[C@@H]1Oc2nc(-c3cc(O)cc4ccc(F)c(C#C)c34)c(F)c3nc(OCC4(CN5CCC(=CF)CC5)CC4)nc(c23)N2C[C@H]3CC[C@H](N3)[C@@H]12 [Example 164] | Not met |
| C#Cc1c(F)ccc2cc(O)cc(-c3nc4c5c(nc(OCC6(CN7CCC(=C(F)F)CC7)CC6)nc5c3F)N3C[C@H]5CC[C@H](N5)[C@H]3CO4)c12 [Example 1-1] | Not met |
| [2H]C([2H])(Oc1nc2c3c(nc(-c4cc(O)cc5ccc(F)c(C#C)c45)c(F)c3n1)O[C@@H](C)[C@@H]1[C@@H]3CC[C@H](CN21)N3)C1(C([2H])([2H])N2CCC(=CF)CC2)CC1 [Example 291] | Met |

----------
Test: Plasma stability test, rat plasma
Conditions: Rat plasma, 37°C, 30 min
test.readout: Remaining rate (%) 30 min

| compound | unit.of.measurement | val |
| --- | --- | --- |
| [2H]C([2H])([2H])[C@@H]1Oc2nc(-c3cc(O)cc4ccc(F)c(C#C)c34)c(F)c3nc(OCC4(CN5CCC(=CF)CC5)CC4)nc(c23)N2C[C@H]3CC[C@H](N3)[C@@H]12 [Example 164] | % | 93.36 |
| C#Cc1c(F)ccc2cc(O)cc(-c3nc4c5c(nc(OCC6(CN7CCC(=C(F)F)CC7)CC6)nc5c3F)N3C[C@H]5CC[C@H](N5)[C@H]3CO4)c12 [Example 1-1] | % | 92.93 |
| C#Cc1c(F)ccc2cc(O)cc(-c3nc4c5c(nc(OCC6(CN7CCC(=CF)CC7)CC6)nc5c3F)N3C[C@H]5CC[C@H](N5)[C@H]3[C@H](C)O4)c12 [Example 129] | % | 98.09 |
| [2H]C([2H])(Oc1nc2c3c(nc(-c4cc(O)cc5ccc(F)c(C#C)c45)c(F)c3n1)O[C@@H](C)[C@@H]1[C@@H]3CC[C@H](CN21)N3)C1(C([2H])([2H])N2CCC(=CF)CC2)CC1 [Example 291] | % | 102.83 |
| C#Cc1c(F)ccc2cc(O)cc(-c3nc4c5c(nc(OCC6(CN7CCC(=C(F)F)CC7)CC6)nc5c3F)N3C[C@H]5CC[C@H](N5)[C@H]3[C@H](C)O4)c12 [Example 19-1] | % | 91.39 |
| CC[C@H](C)C(=O)O[C@H]1C[C@@H](C)C=C2C=C[C@H](C)[C@H](CC[C@@H]3C[C@@H](O)CC(=O)O3)[C@H]21 [Lovastatin, lovastatin, reference compound] | % | 1.77 |

Ref: patent EP4635958A1
